molecular target: AXL (human catalytic domain) (Homo sapiens); construct: purchased Upstate Ltd. 14-512; assay: AXL (human catalytic domain) Enzyme Activity Assay (IMAP fluorescence polarisation); format: biochemical; details: further data set (WW-001 through WW-169, XX-001 through XX-469, YY-001 through YY-016, ZZ-001 through ZZ-003); 150 μM ATP
Sequence (P30530 473-894): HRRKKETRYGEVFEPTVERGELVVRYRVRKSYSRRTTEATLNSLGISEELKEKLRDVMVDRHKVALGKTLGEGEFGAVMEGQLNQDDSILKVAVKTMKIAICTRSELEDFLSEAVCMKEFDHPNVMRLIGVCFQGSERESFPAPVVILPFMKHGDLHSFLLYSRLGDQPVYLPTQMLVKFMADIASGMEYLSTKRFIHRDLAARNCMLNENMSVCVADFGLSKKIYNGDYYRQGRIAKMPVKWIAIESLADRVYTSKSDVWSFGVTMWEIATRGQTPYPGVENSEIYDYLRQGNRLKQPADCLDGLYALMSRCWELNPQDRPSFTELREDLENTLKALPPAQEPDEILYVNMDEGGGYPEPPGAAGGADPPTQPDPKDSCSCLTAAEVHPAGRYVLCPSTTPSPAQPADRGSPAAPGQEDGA
Catalogue of compounds with associated IC50
ASSAY ENDPOINT: IC50

>>> observed("Cc1cccc(S(=O)(=O)NCc2cccc(-c3cccc4nc(Nc5ccc(OCCN6CCCC6)cc5)nn34)c2)c1 [XX-370]")
"100 to 1000 nM"
>>> observed("COc1ccc(-c2cccc3nc(Nc4ccc(OCCNCc5ccncc5)cc4)nn23)cc1 [XX-032]")
"≤ 100 nM"
>>> observed("c1cc(-c2ccc3occc3c2)n2nc(Nc3ccc(OCCN4CCCCC4)cc3)nc2c1 [XX-050]")
"≤ 100 nM"
>>> observed("FC(F)(F)Oc1ccc(-c2cccc3nc(Nc4ccc(OCCN5CCCC5)cc4)nn23)cc1 [XX-244]")
"100 to 1000 nM"
>>> observed("COc1ccc(-c2cccc3nc(Nc4ccc(N(C)C(=O)C(C)N5CCCC5)cc4)nn23)cc1 (stereo not shown) [XX-355]")
"100 to 1000 nM"
>>> observed("CCN(CC)CCOc1c(C)cc(Nc2nc3cccc(-c4ccc(OC)cc4)n3n2)cc1C [XX-416]")
"≤ 100 nM"
>>> observed("COc1cc(-c2cccc3nc(Nc4ccc(OCCN5CCCC5)cc4)nn23)cc(OC)c1OC [XX-246]")
"1000 to 10000 nM"
>>> observed("Oc1cc(F)ccc1-c1cccc2nc(Nc3ccc(OCCN4CCCC4)cc3)nn12 [XX-196]")
"1000 to 10000 nM"
>>> observed("CCN(CC)CCOc1cc(Nc2nc3ccnc(-c4cnn(Cc5ccccc5)c4)n3n2)ccn1 [YY-016]")
"1000 to 10000 nM"
>>> observed("Clc1cccc(COc2cccc(-c3cccc4nc(Nc5ccc(OCCN6CCCC6)cc5)nn34)c2)c1 [XX-330]")
"1000 to 10000 nM"
>>> observed("Fc1ccc(-c2cccc3nc(Nc4ccc(OCCN5CCCC5)cc4)nn23)cc1Cl [XX-282]")
"100 to 1000 nM"
>>> observed("Cc1ccc2sc(-c3cccc4nc(Nc5ccc(OCCN6CCCC6)cc5)nn34)cc2c1 [XX-214]")
"100 to 1000 nM"
>>> observed("CN(C)CCOc1ccc(Nc2nc3cccc(-c4ccc5occc5c4)n3n2)cc1 [XX-051]")
"≤ 100 nM"
>>> observed("CN(C)c1ccc(-c2cccc3nc(NC(=O)C4CC4)nn23)cn1 [WW-036]")
"1000 to 10000 nM"
>>> observed("O=C(Cn1cc(-c2cccc3nc(Nc4ccc(OCCN5CCCC5)cc4)nn23)cn1)NC1CC1 [XX-437]")
"1000 to 10000 nM"
>>> observed("Fc1ccccc1CNc1cccc(-c2cccc3nc(Nc4ccc(OCCN5CCCC5)cc4)nn23)c1 [XX-238]")
"100 to 1000 nM"
>>> observed("c1ccc(-c2cccc(-c3cccc4nc(Nc5ccc(OCCN6CCCC6)cc5)nn34)c2)cc1 [XX-164]")
"100 to 1000 nM"
>>> observed("Cc1cc(C(=O)Nc2ccc(-c3cccc4nc(Nc5ccc(OCCN6CCCC6)cc5)nn34)cc2)on1 [XX-251]")
"100 to 1000 nM"
>>> observed("CCN(CC)CCCOc1ccc(Nc2nc3cccc(-c4ccc5c(c4)OCCO5)n3n2)cc1 [XX-329]")
"100 to 1000 nM"
>>> observed("Cc1cccc(-c2cccc3nc(Nc4ccc(OCCN5CCCC5)cc4)nn23)c1 [XX-213]")
"100 to 1000 nM"
>>> observed("COc1ncc(-c2cccc3nc(Nc4ccc(OCCN5CCCC5)cc4)nn23)cn1 [XX-197]")
"1000 to 10000 nM"
>>> observed("c1cc(-c2cn[nH]c2)n2nc(Nc3ccc(OCCN4CCCC4)cc3)nc2c1 [XX-202]")
"100 to 1000 nM"
>>> observed("COc1ccc(-c2cccc3nc(NC(=O)C4CCCC4)nn23)cc1 [WW-046]")
"1000 to 10000 nM"
>>> observed("COc1ccc(-c2cccc3nc(Nc4cccc(OCCn5ccnc5)c4)nn23)cc1 [XX-015]")
"100 to 1000 nM"
>>> observed("O=C(Nc1nc2cccc(-c3ccc4c(c3)CCO4)n2n1)C1CC1 [WW-159]")
"100 to 1000 nM"
>>> observed("CCN(CC)CCOc1cc(Nc2nc3cccc(-c4cnn(S(=O)(=O)CC(C)C)c4)n3n2)ccn1 [XX-389]")
"100 to 1000 nM"
>>> observed("Cn1ccnc1CNc1cccc(-c2cccc3nc(Nc4ccc(OCCN5CCCC5)cc4)nn23)c1 [XX-258]")
"1000 to 10000 nM"
>>> observed("O=C(Cn1cc(-c2cccc3nc(Nc4ccc(OCCN5CCCC5)cc4)nn23)cn1)NCc1ccccc1 [XX-433]")
"100 to 1000 nM"
>>> observed("COc1ccc(-c2cccc3nc(Nc4ccnc(C(=O)NCCN5CCCC5)c4)nn23)cc1 [XX-386]")
"1000 to 10000 nM"
>>> observed("Clc1cccc(-c2cccc3nc(Nc4ccc(OCCN5CCCC5)cc4)nn23)c1 [XX-210]")
"100 to 1000 nM"
>>> observed("CC(c1ccc(-c2cccc3nc(Nc4ccc(OCCN5CCCC5)cc4)nn23)cc1)N(C)C (stereo not shown) [XX-248]")
"100 to 1000 nM"

Entry source: patent US8431596B2
